- System: T1, human α-CGRP (Homo sapiens, UniProt P06881)
- T1 construct: 1-37 (WT); purchased; host or cells: synthetic peptide
- T1 sequence (P06881 83-119 limits assumed): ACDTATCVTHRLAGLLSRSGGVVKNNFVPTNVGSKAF
- Experimental Protocol: Biacore affinity of antibody G1 Fab and variants to human α-CGRP
- Assay type: binding
- Experimental Parameters: 37° C., Fab, screening mode unless underlined
Measurement Kind: α-human koff (s⁻¹)
Please state the figure in s⁻¹; there is no need to write the unit.

If you can, please state the reported α-human koff value of M43: G1 variant: L1 R28N; L2 G50A,L56T; H2 E54K,A57N,S58C; HC-FW3 L99T,A100V (antibody, V domains shown) VH: EVQLVESGGGLVQPGGSLRLSCAASGFTFSNYWISWVRQAPGKGLEWVAEIRSKSDNCATHYAEAVKGRFTISRDNAKNSLYLQMNSLRAEDTAVYYCTVYFDYGLAIQNYWGQGTLVTVSS VL: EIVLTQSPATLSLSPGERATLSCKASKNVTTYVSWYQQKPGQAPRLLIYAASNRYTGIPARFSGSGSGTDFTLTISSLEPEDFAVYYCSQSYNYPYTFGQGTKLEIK .
0.000263

Moving on to M41: G1 variant: L1 R28N; L2 G50A,L56T; H2 E54K,A57N,E64D; HC-FW3 L99T,A100V (antibody, V domains shown) VH: EVQLVESGGGLVQPGGSLRLSCAASGFTFSNYWISWVRQAPGKGLEWVAEIRSKSDNSATHYADAVKGRFTISRDNAKNSLYLQMNSLRAEDTAVYYCTVYFDYGLAIQNYWGQGTLVTVSS VL: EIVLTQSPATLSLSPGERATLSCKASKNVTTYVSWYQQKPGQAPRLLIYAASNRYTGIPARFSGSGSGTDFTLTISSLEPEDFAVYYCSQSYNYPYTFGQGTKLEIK
0.00021

Moving on to M52: G1 variant: L1 R28N; L2 L56I; H2 E54K,A57N,S58A; HC-FW3 L99T,A100V (antibody, V domains shown) VH: EVQLVESGGGLVQPGGSLRLSCAASGFTFSNYWISWVRQAPGKGLEWVAEIRSKSDNAATHYAEAVKGRFTISRDNAKNSLYLQMNSLRAEDTAVYYCTVYFDYGLAIQNYWGQGTLVTVSS VL: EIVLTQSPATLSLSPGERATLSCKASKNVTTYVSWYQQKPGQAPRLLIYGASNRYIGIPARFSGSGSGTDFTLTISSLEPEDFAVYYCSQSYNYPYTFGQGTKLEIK
0.000281

Moving on to M31: G1 variant: L1 R28N,T30G; H2 E54K,A57G; HC-FW3 L99T,A100V (antibody, V domains shown) VH: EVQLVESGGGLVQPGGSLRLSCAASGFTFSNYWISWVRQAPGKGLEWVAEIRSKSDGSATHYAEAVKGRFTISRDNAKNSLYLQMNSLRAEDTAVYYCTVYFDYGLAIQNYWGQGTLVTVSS VL: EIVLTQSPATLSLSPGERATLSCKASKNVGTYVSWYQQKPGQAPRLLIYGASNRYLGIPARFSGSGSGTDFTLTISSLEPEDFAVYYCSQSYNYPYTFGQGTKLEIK
0.000347

Moving on to M25: G1 variant: L1 R28N; HC-FW3 L99T,A100V (antibody, V domains shown) VH: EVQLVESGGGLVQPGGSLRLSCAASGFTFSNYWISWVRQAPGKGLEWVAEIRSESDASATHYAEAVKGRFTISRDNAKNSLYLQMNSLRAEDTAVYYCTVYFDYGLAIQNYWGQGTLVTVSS VL: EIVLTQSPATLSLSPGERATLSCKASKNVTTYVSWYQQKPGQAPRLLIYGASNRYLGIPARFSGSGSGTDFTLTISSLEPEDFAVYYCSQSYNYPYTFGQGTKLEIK
0.00014

Moving on to M70: G1 variant: L1 R28N,T30G; L2 L56I; H2 E54K,A57S; HC-FW3 L99T,A100V (antibody, V domains shown) VH: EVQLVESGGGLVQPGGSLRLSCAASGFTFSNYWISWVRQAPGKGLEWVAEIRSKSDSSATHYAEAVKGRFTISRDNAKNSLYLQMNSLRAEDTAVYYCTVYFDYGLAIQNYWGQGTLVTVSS VL: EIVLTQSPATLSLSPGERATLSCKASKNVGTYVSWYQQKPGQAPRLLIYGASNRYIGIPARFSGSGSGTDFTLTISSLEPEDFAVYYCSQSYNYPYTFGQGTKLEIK
0.000559

Moving on to M23: G1 variant: L1 R28G; HC-FW3 L99T,A100V (antibody, V domains shown) VH: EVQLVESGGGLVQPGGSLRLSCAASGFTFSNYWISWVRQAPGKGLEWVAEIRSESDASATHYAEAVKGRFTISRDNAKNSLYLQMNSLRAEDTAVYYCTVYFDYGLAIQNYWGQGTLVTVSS VL: EIVLTQSPATLSLSPGERATLSCKASKGVTTYVSWYQQKPGQAPRLLIYGASNRYLGIPARFSGSGSGTDFTLTISSLEPEDFAVYYCSQSYNYPYTFGQGTKLEIK
0.00013

Moving on to M77: G1 variant: L1 R28N,T30S; L2 G50A,L56T; H2 E54K,A57D; HC-FW3 L99T,A100V (antibody, V domains shown) VH: EVQLVESGGGLVQPGGSLRLSCAASGFTFSNYWISWVRQAPGKGLEWVAEIRSKSDDSATHYAEAVKGRFTISRDNAKNSLYLQMNSLRAEDTAVYYCTVYFDYGLAIQNYWGQGTLVTVSS VL: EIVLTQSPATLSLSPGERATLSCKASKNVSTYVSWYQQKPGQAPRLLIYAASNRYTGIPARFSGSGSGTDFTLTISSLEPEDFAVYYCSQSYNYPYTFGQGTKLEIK
0.000477
